Taken from patent US11111230B2.

# Target Under Test: human IDO1 protein (Homo sapiens, UniProt P14902)
# Sequence (P14902 whole entry): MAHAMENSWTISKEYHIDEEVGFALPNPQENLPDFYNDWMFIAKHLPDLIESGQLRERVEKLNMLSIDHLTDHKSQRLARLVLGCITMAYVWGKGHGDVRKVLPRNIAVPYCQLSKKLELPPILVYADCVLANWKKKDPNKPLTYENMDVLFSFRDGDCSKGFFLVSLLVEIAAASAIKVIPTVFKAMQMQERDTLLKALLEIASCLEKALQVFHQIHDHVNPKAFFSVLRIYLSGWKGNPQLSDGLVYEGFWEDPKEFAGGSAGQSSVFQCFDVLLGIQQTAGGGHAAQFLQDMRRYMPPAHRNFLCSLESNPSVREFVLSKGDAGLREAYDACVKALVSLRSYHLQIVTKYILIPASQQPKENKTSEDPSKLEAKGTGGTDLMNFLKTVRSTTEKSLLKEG
# Measurement Description: Activity in HEK293 cells highly expressing human IDO1 protein
# Settings: HEK293-IDO cells, tryptophan 16 mg/L, 24 hours, absorption at 480 nm; read-out: IC50 (HEK293 cell)
Reported Property: IC50

Solved cases below.
Compound	Target Under Test	IC50
N#Cc1ccc(NC(=O)C2CC23CCC(c2ccnc4ccc(F)cc24)CC3)cc1 (centres unmarked)	human IDO1 protein (Homo sapiens, UniProt P14902)	10 to 100 nM
Cc1cc2nccc(C3CCC4(CC3)CC4C(=O)Nc3ccc(Cl)nc3)c2cc1F (centres unmarked)	human IDO1 protein (Homo sapiens, UniProt P14902)	10 to 100 nM
COc1cc2nccc([C@H]3CC[C@@]4(CC3)C[C@@H]4C(=O)Nc3ccc(Cl)cc3)c2cc1F (single isomer, unassigned)	human IDO1 protein (Homo sapiens, UniProt P14902)	0.1 to 10 nM
O=C(Nc1ccc(Cl)cc1)C1CC12CCC(c1ccnc3cc4c(cc13)OCCO4)CC2 (centres unmarked)	human IDO1 protein (Homo sapiens, UniProt P14902)	> 100 nM
O=C(Nc1ccc(Cl)cc1)[C@H]1CC12CCC(c1ccnc3ccc(F)cc13)CC2 (single isomer, unassigned) [Compound 10a]	human IDO1 protein (Homo sapiens, UniProt P14902)	0.1 to 10 nM
Cc1cc2nccc([C@H]3CC[C@@]4(CC3)C[C@H]4C(=O)Nc3ccc(Cl)cc3)c2cc1F (single isomer, unassigned)	human IDO1 protein (Homo sapiens, UniProt P14902)	> 100 nM

Please examine the following record next.
Q) // lookup IC50 for COc1cc2nccc([C@H]3CC[C@@]4(CC3)C[C@H]4C(=O)Nc3ccc(Cl)cc3)c2cc1F (single isomer, unassigned)
A) > 100 nM
